Below, each of the molecules is paired with its reported half-life at 2 μM value.
Assay: Stability in liver microsomes
Format: in vitro ADME
Conditions: pH 7.8; 2 μM peptidomimetic, human liver microsomes, 37° C.; read-out: half-life (t1/2) when incubated with liver microsomes
Measured endpoint: half-life at 2 μM (h)

CCc1cc(OC)ccc1-c1ccc(CC(NC(=O)[C@H](CC(=O)O)NC(=O)[C@H](CO)NC(=O)[C@@H](NC(=O)[C@H](Cc2ccccc2)NC(=O)[C@@H](NC(=O)CNC(=O)[C@H](CCC(N)=O)NC(=O)[C@H](CO)NC(=O)[C@@H](N)Cc2c[nH]cn2)[C@@H](C)O)[C@@H](C)O)C(=O)NC(CCCc2ccccc2Cl)C(N)=O)cc1 (single isomer, unassigned) [compound 50]	1
CCc1cc(OC)ccc1-c1ccc(CC(NC(=O)[C@H](CC(=O)O)NC(=O)[C@H](CO)NC(=O)[C@@H](NC(=O)[C@H](Cc2ccccc2)NC(=O)[C@@H](NC(=O)CNC(=O)C(CCC#N)NC(=O)C(C)(C)NC(=O)[C@@H](N)Cc2c[nH]cn2)[C@@H](C)O)[C@@H](C)O)C(=O)NC(CCCc2ccccc2C(F)(F)F)C(N)=O)cc1 (single isomer, unassigned) [compound 79]	0.5
CCc1cc(OC)ccc1-c1ccc(CC(CNC(CCCc2ccccc2)C(N)=O)NC(=O)[C@H](CC(=O)O)NC(=O)[C@H](CO)NC(=O)[C@@H](NC(=O)C(C)(Cc2ccccc2F)NC(=O)[C@@H](NC(=O)CNC(=O)[C@H](CCC(N)=O)NC(=O)C(C)(C)NC(=O)[C@H](Cc2c[nH]cn2)NC(C)=O)[C@H](C)O)[C@H](C)O)cc1 (single isomer, unassigned) [compound 185]	2

====

Molecular target: Human GLP-1 receptor (Homo sapiens, UniProt P43220)
Construct: The full-length cDNA was cloned in pcDNA3.1(+); expressed in transfected cells
Sequence (P43220 24-463): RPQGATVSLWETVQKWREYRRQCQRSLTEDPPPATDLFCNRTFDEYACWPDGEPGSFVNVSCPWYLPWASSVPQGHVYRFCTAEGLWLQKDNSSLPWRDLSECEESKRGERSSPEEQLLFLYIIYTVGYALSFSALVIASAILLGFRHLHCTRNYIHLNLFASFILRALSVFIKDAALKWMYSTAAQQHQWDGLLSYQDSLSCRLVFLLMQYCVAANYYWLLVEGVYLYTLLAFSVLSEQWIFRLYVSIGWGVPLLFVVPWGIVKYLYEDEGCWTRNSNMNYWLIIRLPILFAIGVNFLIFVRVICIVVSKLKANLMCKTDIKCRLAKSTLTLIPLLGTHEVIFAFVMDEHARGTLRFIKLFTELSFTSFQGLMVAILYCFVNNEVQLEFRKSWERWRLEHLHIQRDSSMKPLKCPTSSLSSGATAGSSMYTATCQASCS
Assay: In vitro Human GLP-1 R agonist activity (cyclic AMP determination) in CHO/human GLP1R cells
Format: cell-based
Conditions: 1 nM test compound
Below, each of the compounds is paired with its reported Human GLP-1 R activity (cAMP release), % activity with respect to control value.
Measured endpoint: Human GLP-1 R activity (cAMP release), % activity with respect to control (%)

CCc1cc(OC)ccc1-c1ccc(CC(CNC(CCCc2ccccc2F)C(N)=O)NC[C@H](CC(=O)O)NC(=O)[C@H](CO)NC(=O)[C@@H](NC(=O)C(C)(Cc2ccccc2F)NC(=O)[C@@H](NC(=O)CNC(=O)[C@H](CCC(N)=O)NC(=O)C(C)(C)NC(=O)[C@H](Cc2c[nH]cn2)NC(=O)OC)[C@@H](C)O)[C@@H](C)O)cc1 (single isomer, unassigned) [compound 196]	39
CCc1cc(OC)ccc1-c1ccc(CC(NC(=O)[C@H](CC(=O)O)NC(=O)[C@H](CO)NC(=O)[C@@H](NC(=O)[C@H](Cc2ccccc2)NC(=O)[C@@H](NC(=O)CNC(=O)C(CCC#N)NC(=O)C(C)(C)NC(=O)[C@@H](N)Cc2c[nH]cn2)[C@@H](C)O)[C@@H](C)O)C(=O)NC(CCCc2ccc(Cl)cc2C)C(N)=O)cc1 (single isomer, unassigned) [compound 32]	39
CCc1cc(OC)ccc1-c1ccc(CC(NC(=O)[C@H](CC(=O)O)NC(=O)[C@H](CO)NC(=O)[C@@H](NC(=O)[C@H](Cc2ccccc2)NC(=O)[C@@H](NC(=O)CNC(=O)[C@H](CCC(N)=O)NC(=O)[C@H](CO)NC(=O)[C@@H](N)Cc2c[nH]cn2)[C@@H](C)O)[C@@H](C)O)C(=O)NC(CCCc2ccccc2F)C(N)=O)cc1 (single isomer, unassigned) [compound 45]	51

====

Assay: Stability in liver microsomes
Assay type: in vitro ADME
Settings: 2 μM peptidomimetic, human liver microsomes, 37° C., 24 h
Non-standard residues stand in square brackets, D forms with d. Residues, ends and D or L forms follow the SMILES beside them. ξ: configuration not given here. ξBip(2'-Et-4'-OMe) = CCc1cc(OC)ccc1-c1ccc(CC(N)C(=O)O)cc1; ξNva(5-(3,5-Me2-Ph)) = Cc1cc(C)cc(CCCC(N)C(=O)O)c1; ξNva(5-(3-Cl-Ph)) = NC(CCCc1cccc(Cl)c1)C(=O)O; Ac5c = NC1(C(=O)O)CCCC1
Outcome label depends on % degradation of peptidomimetics in 24 h when incubated with liver microsomes relative to 80%: at/above gives 1, below gives 0.

CCc1cc(OC)ccc1-c1ccc(CC(NC(=O)[C@H](CC(=O)O)NC(=O)[C@H](CO)NC(=O)[C@@H](NC(=O)[C@H](Cc2ccccc2)NC(=O)[C@@H](NC(=O)CNC(=O)C(CCC#N)NC(=O)C(C)(C)NC(=O)[C@@H](N)Cc2c[nH]cn2)[C@@H](C)O)[C@@H](C)O)C(=O)NC(CCCc2ccc(C(F)(F)F)cc2F)C(N)=O)cc1 (single isomer, unassigned)	1
CCc1cc(OC)ccc1-c1ccc(CC(CNC(CCCc2ccccc2F)C(N)=O)NC[C@H](CC(=O)O)NC(=O)[C@H](CO)NC(=O)[C@@H](NC(=O)C(C)(Cc2ccccc2F)NC(=O)[C@@H](NC(=O)CNC(=O)[C@H](CCC(N)=O)NC(=O)C(C)(C)NC(=O)[C@@H](N)Cc2c[nH]cn2)[C@H](C)O)[C@H](C)O)cc1 (single isomer, unassigned)	0
CCc1cc(OC)ccc1-c1ccc(CC(NC(=O)[C@H](CC(=O)O)NC(=O)[C@H](CO)NC(=O)[C@@H](NC(=O)[C@H](Cc2ccccc2)NC(=O)[C@@H](NC(=O)CNC(=O)C(CCC#N)NC(=O)C(C)(C)NC(=O)[C@@H](N)Cc2c[nH]cn2)[C@@H](C)O)[C@@H](C)O)C(=O)NC(CCCc2ccccc2Cl)C(N)=O)cc1 (single isomer, unassigned)	1
CCc1cc(OC)ccc1-c1ccc(CC(NC(=O)[C@H](CC(=O)O)NC(=O)[C@H](CO)NC(=O)[C@@H](NC(=O)[C@H](Cc2ccccc2)NC(=O)[C@@H](NC(=O)CNC(=O)[C@H](CCC(N)=O)NC(=O)C2(NC(=O)[C@@H](N)Cc3c[nH]cn3)CCCC2)[C@@H](C)O)[C@@H](C)O)C(=O)NC(CCCc2cccc(Cl)c2)C(N)=O)cc1 (stereo partly shown) [compound 27] (H-H[Ac5c]QGTFTSD[ξBip(2'-Et-4'-OMe)][ξNva(5-(3-Cl-Ph))]-NH2)	0
CCc1cc(OC)ccc1-c1ccc(CC(NC(=O)[C@H](CC(=O)O)NC(=O)[C@H](CO)NC(=O)[C@@H](NC(=O)C(C)(Cc2ccccc2)NC(=O)[C@@H](NC(=O)CNC(=O)[C@H](CC(C(F)(F)F)C(F)(F)F)NC(=O)C(C)(C)NC(=O)[C@@H](N)Cc2c[nH]cn2)[C@@H](C)O)[C@@H](C)O)C(=O)NC(CCCc2ccccc2)C(N)=O)cc1 (single isomer, unassigned)	1
CCc1cc(OC)ccc1-c1ccc(CC(NC(=O)[C@H](CC(=O)O)NC(=O)[C@H](CO)NC(=O)[C@@H](NC(=O)C(C)(Cc2ccccc2F)NC(=O)[C@@H](NC(=O)CNC(=O)[C@H](CC(C(F)(F)F)C(F)(F)F)NC(=O)C(C)(C)NC(=O)[C@@H](N)Cc2c[nH]cn2)[C@@H](C)O)[C@H](C)O)C(=O)NC(CCCc2ccccc2F)C(N)=O)cc1 (single isomer, unassigned)	0
CCc1cc(OC)ccc1-c1ccc(CC(NC(=S)[C@H](CC(=O)O)NC(=O)[C@H](CO)NC(=O)[C@@H](NC(=O)C(C)(Cc2ccccc2F)NC(=O)[C@@H](NC(=O)CNC(=O)C(CCC#N)NC(=O)C(C)(C)NC(=O)[C@@H](N)Cc2c[nH]cn2)[C@H](C)O)[C@H](C)O)C(=S)NC(CCCc2ccccc2)C(N)=O)cc1 (single isomer, unassigned)	0
CCc1cc(OC)ccc1-c1ccc(CC(NC(=O)[C@H](CC(=O)O)NC(=O)[C@H](CO)NC(=O)[C@@H](NC(=O)[C@H](Cc2ccccc2)NC(=O)[C@@H](NC(=O)CNC(=O)[C@H](CCC(N)=O)NC(=O)[C@H](C)NC(=O)[C@@H](N)Cc2c[nH]cn2)[C@@H](C)O)[C@@H](C)O)C(=O)NC(CCCc2cc(C)cc(C)c2)C(N)=O)cc1 (stereo partly shown) [compound 14] (H-HAQGTFTSD[ξBip(2'-Et-4'-OMe)][ξNva(5-(3,5-Me2-Ph))]-NH2)	1
CCc1cc(OC)ccc1-c1ccc(CC(NC(=O)[C@H](CC(=O)O)NC(=O)[C@H](CO)NC(=O)[C@@H](NC(=O)[C@H](Cc2ccccc2)NC(=O)[C@@H](NC(=O)CNC(=O)C(CCC#N)NC(=O)C(C)(C)NC(=O)[C@@H](N)Cc2c[nH]cn2)[C@@H](C)O)[C@@H](C)O)C(=O)NC(CCCc2ccc(OC)cc2Cl)C(N)=O)cc1 (single isomer, unassigned)	1
